Hello, the source for this data is patent US20160264674A1, in case you need it.

- STUDY_TARGET: T1, FLAG-tagged human APRIL (human, UniProt O75888 105-250, limits assumed)
- T1 construct: also called FLAG-tagged APRIL; FLAG-APRIL; not shown: FLAG tag
- T1 sequence (looked up): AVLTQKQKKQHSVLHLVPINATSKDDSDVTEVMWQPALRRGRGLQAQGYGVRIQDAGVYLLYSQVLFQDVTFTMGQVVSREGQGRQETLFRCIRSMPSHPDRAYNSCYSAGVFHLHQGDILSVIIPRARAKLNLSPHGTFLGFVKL
- ASSAY_NAME: competition ELISA: antibody premixed with FLAG-tagged APRIL, added to coated Fc-BCMA, anti-FLAG HRP
Provide the recorded IC50 for the entries that follow.
Give bare numbers, in nM.

Solved entries (count: 2):
{"columns": ["BINDER", "IC50 [nM]"],
 "data": [
  ["VH14_1C.VL15 (antibody, human IgG4, V domains shown, VH14_1 with M70I; Rest is human IgG4 (S241P, Kabat) and human kappa; also called 14_1C.15) VH: QVQLVQSGAEVKKPGASVKVSCKASGYTFTSYVMHWVRQAPGQGLEWMGYINPYNDAPKYNEKFKGRVTITSDTSASTAYMELSSLRSDDTAVYYCARGLGYALYYAMDYWGQGTTVTVSS VL: DIVMTQSPSTLSASVGDRVTITCKASQNVGNNVAWYQQKPGKAPKLLISSASNRDSGVPSRFSGSGSGTEFTLTISSLQPDDFATYFCQQYNIYPFTFGQGTKLEIK", 5.26],
  ["VH14_1.VL15 (antibody, human IgG4, V domains shown, VH14 with R72S; rest is human IgG4 (S241P, Kabat) and human kappa; also called 14_1.15; antibody 14_1.15) VH: QVQLVQSGAEVKKPGASVKVSCKASGYTFTSYVMHWVRQAPGQGLEWMGYINPYNDAPKYNEKFKGRVTMTSDTSASTAYMELSSLRSDDTAVYYCARGLGYALYYAMDYWGQGTTVTVSS VL: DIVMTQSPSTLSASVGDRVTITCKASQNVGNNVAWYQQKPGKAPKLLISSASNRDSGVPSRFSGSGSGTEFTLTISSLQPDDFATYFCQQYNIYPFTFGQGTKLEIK", 2.63]
]}

Any idea what its IC50 is? The binder is VH14_1D.VL15 (antibody, human IgG4, V domains shown, VH14_1 with T74K; Rest is human IgG4 (S241P, Kabat) and human kappa; also called 14_1D.15) VH: QVQLVQSGAEVKKPGASVKVSCKASGYTFTSYVMHWVRQAPGQGLEWMGYINPYNDAPKYNEKFKGRVTMTSDKSASTAYMELSSLRSDDTAVYYCARGLGYALYYAMDYWGQGTTVTVSS VL: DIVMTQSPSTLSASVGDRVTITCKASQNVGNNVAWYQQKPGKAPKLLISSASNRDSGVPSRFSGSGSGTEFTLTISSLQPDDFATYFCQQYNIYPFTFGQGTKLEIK
0.96
